Entry source: PubChem BioAssay (Tox21)

- Experiment Summary: qHTS assay to identify small molecule agonists of the estrogen receptor alpha (ER-alpha) signaling pathway in the presence of an antagonist - cell viability counter screen (AID 1259386);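 note: cells exposed to compounds for 22 h at 37 °C before the viability read; nearly all actives have a fitted effect of over 30% in size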
- Test Parameters: VM7Luc4E2 viability, CellTiter-Fluor fluorescence, 22 h; series mostly up to 92.4 µM
Results filed as inconclusive are left out. Calls of active or inactive are those of the source. Calls come from the whole dose curve; as a rule, active = well fitted cell-killing curve with a large enough effect in the repeat runs; inconclusive = weak or mixed curves, or effect the other way; inactive = no such curve, though single readings can be large or run the other way.
Outcome codes: TRUE for active, FALSE for inactive

# Compound, Assigned Label
data = [
    ("CC(=O)CC(c1ccc([N+](=O)[O-])cc1)c1c(O)c2ccccc2oc1=O (centres undefined)", "FALSE"),
    ("CC(=O)[C@H]1CC[C@H]2[C@@H]3C[C@H](C)C4=CC(=O)CC[C@]4(C)[C@H]3[C@@H](O)C[C@]12C", "FALSE"),
    ("C[N+]1(C)CCC(=C(c2ccccc2)c2ccccc2)CC1", "FALSE"),
    ("Cc1cnc(C)c(C)n1", "FALSE"),
    ("C[C@@H]1C[C@H]2[C@@H]3CCC4=CC(=O)C=C[C@]4(C)[C@@]3(F)[C@@H](O)C[C@]2(C)[C@@]1(O)C(=O)CO", "FALSE"),
    ("CCNC(=O)N1CCN(CCCC(c2ccc(F)cc2)c2ccc(F)cc2)CC1", "TRUE"),
    ("CCCCOC(=O)CCS", "FALSE"),
    ("CO[Si](C)(OC)OC", "FALSE"),
    ("CC(C)C(OC(=O)c1ccccc1)C(C)(C)COC(=O)c1ccccc1 (centres undefined)", "FALSE"),
    ("CCOC(=O)N1CCC(n2c(=O)[nH]c3cc(Cl)ccc32)CC1", "TRUE"),
    ("Cc1occc1C(=O)Nc1ccc(C(=O)N2CCC(F)(F)/C(=C\\C(=O)N3CCC(N4CCCCC4)CC3)c3ccccc32)cc1", "FALSE"),
    ("O=C(N[C@@H](c1ccccc1)[C@@H]1CCCCN1)c1cccc(C(F)(F)F)c1Cl", "FALSE"),
    ("NCC1CCCC(CN)C1 (centres undefined)", "FALSE"),
    ("CCCCCC=CCC=CCCCCCCCC(=O)OCC", "FALSE"),
]

###

- Measured Target: Peroxisome proliferator-activated receptor gamma (Homo sapiens)
- Experiment Summary: qHTS assay to identify small molecule antagonists of the peroxisome proliferator-activated receptor gamma (PPARg) signaling pathway (AID 743191); note: nearly all actives have a fitted effect of over 30% in size
- Test Parameters: HEK293H PPARg-UAS-bla, beta-lactamase ratio, antagonist, 17 h; series mostly up to 62.6 µM
Results filed as inconclusive are left out. Activity calls are given as the source filed them. Calls follow the shape of the full dose curve.
Outcome codes: active, inactive

# Mol Smiles, Measured Target, Assigned Label
rows = [
    ("Nc1ccc(S(=O)(=O)O)c(N)c1", "Peroxisome proliferator-activated receptor gamma (Homo sapiens)", "inactive"),
    ("CC1(C)C(=O)N(Br)C(=O)N1Cl", "Peroxisome proliferator-activated receptor gamma (Homo sapiens)", "inactive"),
    ("CCCOC(=O)c1ccc(C(=O)OCCC)nc1", "Peroxisome proliferator-activated receptor gamma (Homo sapiens)", "inactive"),
    ("CCN(CC)CCNC(=O)c1ccc(NC(C)=O)cc1", "Peroxisome proliferator-activated receptor gamma (Homo sapiens)", "inactive"),
    ("CC(C)C(=O)O", "Peroxisome proliferator-activated receptor gamma (Homo sapiens)", "inactive"),
    ("CCOC(=O)N1CCC(n2c(=O)[nH]c3cc(Cl)ccc32)CC1", "Peroxisome proliferator-activated receptor gamma (Homo sapiens)", "inactive"),
    ("CCOC(=O)c1ccccc1OC", "Peroxisome proliferator-activated receptor gamma (Homo sapiens)", "inactive"),
    ("Oc1ccc(Nc2ccccc2)cc1", "Peroxisome proliferator-activated receptor gamma (Homo sapiens)", "active"),
    ("COc1ccccc1N=Nc1c(S(=O)(=O)O)cc2cc(S(=O)(=O)O)cc(NC(C)=O)c2c1O", "Peroxisome proliferator-activated receptor gamma (Homo sapiens)", "inactive"),
]
